- TESTED_TARGET: actin filaments (skeletal muscle) (Gallus gallus), P68139
- APPLIED_CONDITIONS: modification not given

- BINDER: "MGVADLIKKFESISKEE [mEGFP-Lifeact]"
  Kd: "9.3 µM"
